Biological target: Bcl-xL, Q07817
Sequence (Q07817 1-209): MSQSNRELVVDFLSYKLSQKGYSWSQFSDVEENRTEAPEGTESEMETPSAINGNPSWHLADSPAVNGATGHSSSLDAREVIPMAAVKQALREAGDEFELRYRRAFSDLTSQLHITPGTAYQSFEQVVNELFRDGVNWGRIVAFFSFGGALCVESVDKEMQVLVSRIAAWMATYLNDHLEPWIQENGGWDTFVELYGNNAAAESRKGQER
Test: peptide SPOT array, c-Myc-tagged receptor at 1 uM or 100 nM, anti-c-Myc-Cy3
PROPERTY NAME: SPOT signal as a fraction of Bim BH3's signal on the same receptor and array

Study these solved cases before continuing.
{"BINDER": "LDDIEFFITKLQKAAEAFSELSKRKK [EPS8]", "EXPERIMENTAL VALUE": 0.13}
{"BINDER": "QEQEQHVPFDDHTYGDQLVSRFPQLN [NCAPH2]", "EXPERIMENTAL VALUE": 0.05}
{"BINDER": "TCRISESVKKLMELAYQTLLEATTSS [ZW10]", "EXPERIMENTAL VALUE": 0.04}

[A] ASEANLFEEALEKYGKDFTDIQQDFL [MTA1]
[B] VHKHSRLAEVDQLGSDILPQYKQEAP [KCNH1]
[C] MGVLAAAARCLVRGLDRMSKWTSKRG [MRPL41]
[D] FERVEQMCIQIKEVLDRVNYIKRSLQ [TRPM7]
Qu. // ranking: key=SPOT signal as a fraction of Bim BH3's signal on the same receptor and array, reverse=True Would you mind listing the labels in the order asked for?
Ans. C, D, B, A
